- Method Summary: yeast display, Sf9 membrane polyspecificity reagent, FACS + sequencing; frameworks hold sequencing errors
Property: polyreactivity (PSR sort gate)

QVQLVESGGGLVQAGGSLRLSCAASGSNFYGYAMGWYRQAPGKERELVAAISSGGRTKYADSVKGRFTISRDNAKNTVYLQMNSLKPEDTAVYYCNVSYLVDRWKFGWSMDYWGQGNQVTVSS = low polyreactivity
QVQLVESGGGLVQAGGSLRLSCAASGSIFVRYTMAWYRQAPGKERELVAAISWGGGSTYYADSVKGRFTISRDNAKYTVYLQMNSLKPEDTAVYFCNKRYIQLYDYWGQGTQVTVSS = low polyreactivity
QVQLVESGGGLVQAGGSLRLSCAASGFIFFQNAMGWYRQAQGKERELVAAISRRGGSTYYADSVKGRFTISRDNAKNTVYLQMNSLKPEDTAVYYCAARSRGDLASLYTGDYWGQGTQVTVSS = low polyreactivity
QVQHVESGVGLDQAGGSLRLSCAASGSIFYWNAMGWYRQAPGKEREFVATITITTSTNYADSVKGRFTISRDNAKNPVNLQMNSLKPEDTAVYYCNAGAPYRYLDEYNYWGQGTKVTVSS = low polyreactivity
QVQLVESGGGLVQAGGRLRLSCAASGSIFINNTMGWYRQAPGKERELVAAISITGGSTYYADSVKGRFTISRDNAKNTVYLQMNSLKPEDTAVYYCAADPLQLYDYNYWGQCTQVTVSS = low polyreactivity

What the record says about QVQLVESGGGLVQAGGSLRLSCAASGYIVITYAMGRYRQAPGKERELVAAISRRGGRTYYADSVKGRFTISRDNAKNTVYLQMNSLKPEATAVYYCAADPATSVYGGLNYWGQGTQVTVSS : polyreactivity (PSR sort gate) is high polyreactivity

What the record says about QVQLVESGGGLVQAGGILRLSCASSRFTFTWYAMGWYRPAPGKERELVAAISLSGDRTYYADSVKGRFTISRDNAKNTVYLQMNSLKPEDTAVYYCVFAFEYYYWGQGTQVTVSS : polyreactivity (PSR sort gate) is low polyreactivity

What the record says about QVQLVESGGGLVQAGGSLRLSCAASGRIFDLNAMGWYRQAPGKERELVAAITWSGDSTYYADSVKGRFTISRDNAKNTVYLQMNSLKPEDTAVYYCAAASRTSYSWVDYEFDYWGQGTQVTVSS : polyreactivity (PSR sort gate) is low polyreactivity

What the record says about QDQLVESGGGLVKAGGSLRLSCAASGGTFYYYAMGWYRQAPGKERELVAANTRSGGNAYYADSVKARFTISRDNAKNTVYLLLHSLKPEDTAVYYCAAPFVNFVGSLVYAGYDSCGQGTQVTVSS : polyreactivity (PSR sort gate) is low polyreactivity

What the record says about QVQLVESGGGLVQAGGSLRLSCAASGSIFGYYAMVWKRQAPGKESELVAAMNYSGVSTYYADSVKGRFTISRDNAKNTVYLQMNSLKPEDSAVYYCARDIRRKGFRYDYWGQGTQVTVSS : polyreactivity (PSR sort gate) is high polyreactivity

What the record says about QVQLVESGGGLVQAGGSLRLSCAASGFTYVVYDMGWYRQAPGKERELLAVITNSGGSTYYADSVKGRFTISRDNAKNTVYLQMYSLKPEDTAVYYCATRTPVWVNTESDYWGQGTQVTVSS : polyreactivity (PSR sort gate) is low polyreactivity

---

- Method Summary: yeast display, Sf9 membrane polyspecificity reagent, FACS + sequencing; frameworks hold sequencing errors
Property: polyreactivity (PSR sort gate)

QVQLVESGGGLVQAGGSLRLSCAASGIIFGGYTMGWSRQAPGKERELVAAISWSGVGTYYADSVKGRFTISRDNAKNTVYLQMNSLKPEDTAVYYCAAWAYYSDDDEYWGQGTQVTVSS = high polyreactivity
QVQLVESGGGLVQAGGSLRLSCDASGLTFRLYTMGWYRQAPGKETELGAAITYSGDSTYYADSVKGRFTISRDNAKNTDYLQMNSLKPEDTAVYYCAARKYYARYYWGQGTQVTVSW = high polyreactivity
QVQLVESGGGLVQAGGSLRLSCAASGSTFAVYAMGWYRQEPGKERELVAVISRGANTNYADSVKGRFTISRDNAKNTVYLQMNSLIPEDTAVYYCAAPSFFTHRGRFDYWGQGTQVTVSS = low polyreactivity
QVQLVESGGGLVQAGGSLRLSCAASGFIFYLYAMGWYRQAPGKERELVAAIDSGDDTDYADSVKGRFTISRDNAKNTVYLQMNSLKPEDTAVYYCAAGAYWPWGEDYWGQGTQVTVSS = high polyreactivity
QVQLVESGGGLVQAGGSLRLSCAASGRTFFLYAMGWYRQAPGKESEFVATISYGGGSTYYADSVKGRFTISRDNAKNTVYLQMNSLKPEDTAVYYCNALNTSQYAEGTSDYDGNMGNWGQCTQVTVSS = low polyreactivity
QVQLVESGGGLVQAGGSLRLSCAASGSIFYPNVMGWYRQAPGKERELVATISRGGTTNYADSVKGRFTISRDNAKNTVYLQMNRLKPEDTAVYYCAAPIGDVYVGKGYDSWGQGTQVTVSS = low polyreactivity

What the record says about QVQLVESGGGLVQAGGSLRLSCAASGSTFGWYAMGWYRKAPGKERELVAAISTTGGRTYYADSVKGRFTISRDNAKNTVYLQMNSLKPEDTAVYYCNARGRRYVYSYGYDYWGQGTQVTVSS : polyreactivity (PSR sort gate) is high polyreactivity

What the record says about QVQLVESGGGLVQAGGSLRLSCAASGYIFGSYVMGWYRQAPGKERELVAAITRIGASTYFADSVKGRFTISRDNAKNTVYLQMNSLKPDDTAVFYCATDQGGYYENDYWGQGTQVTVSS : polyreactivity (PSR sort gate) is low polyreactivity

What the record says about QVQLVESGGGLVQAGGSLRLSCAASGITFAYYAKGWYRQAPGKEREFVAAINGGGSTNYADSVKGRFSISRDNAKNTVYLQMNSLKAEDTAVYFCNARRAYRAWYYPYDYWGQGTQVTVSS : polyreactivity (PSR sort gate) is high polyreactivity

What the record says about QVQLQESGGGLVQAGGSLRLSCAGSGYIFPRIYMGWYRQAPGKEREFDAGISYDAITNYADSVKGRFTISLDNAKNTVYLQMNSLKPEDTAVYYCAVSYYGTPLFTYWGQGTQVTVSS : polyreactivity (PSR sort gate) is high polyreactivity

What the record says about QVQLVESGGGLVQAGGRLSLSCAASGSTFSPYAMGWYRQAPGKEREFVADISWPGGTTYYADSVKGRFTISRDNAKNTVYLQMNSLKPEDTAVYYCAVTYWDYTFQITYEYWGQGTQVTVSS : polyreactivity (PSR sort gate) is low polyreactivity

---

- Method Summary: yeast display, Sf9 membrane polyspecificity reagent, FACS + sequencing; frameworks hold sequencing errors
Property: polyreactivity (PSR sort gate)

QVQLVESGGGLVQAGGSLRLSCAASGRTFIWNAMGWYRQAPGKERELVADISIRGGSTNYADSVKGRFTISRDNAKNTVYLQMNSLKPEDTAVYYCAADYYDSGNDYWGQGTQVTVSS = low polyreactivity
QVQLVESGGGLVQAGCSLRLSCAASGRIFGTNDMGWYRQAPGKERELVAAINGSDSSTYYADSVKGRFTISRDNAKNTVYFQMNSLKPEDTAVYYCNADWSGAPERSTDGYDYWGQGTQVTVSS = low polyreactivity

---

- Method Summary: yeast display, Sf9 membrane polyspecificity reagent, FACS + sequencing; frameworks hold sequencing errors
Property: polyreactivity (PSR sort gate)

Example entries begin here.
QGQLVESGGGLVQAGCSLRLSCAASGITYTPYALGWYRQAPGKAREFVASISVSGGSTYYADSVKGRFRFSRVNAKNTVYLEMNCLKPEDTAVYYCNAVSYRKHYFNSLYGYWGLGTQVTVSS = high polyreactivity
QVQLVESGGGLVQAGGSLRLSCAASGRIFYTYAMGWYRQAPGKERELVAAINRSGSSTYYADSVKGRFTISRDNAKNTVYLQMNSLKPEDTAVYYCNAQSYRYYGWVLTDVDYWGQGTQVTVSS = low polyreactivity
QVQLVESGGGLVQAGGSLRLSCAASGSTFEYNAMGWYRQAPGKERELVASSTNYADSVKGRFTISRDNAKNTVYLQMNSLKPDDTEVYYCARDRYYTREWYWYRHDHWGQGTQVTVSS = low polyreactivity
QVQLVESGGGLVQAGGSLRLSCAASGYNFARYAMGWDRQAPGKEREFVAAITWSGGTTYYADSVKGRFTISRDNAKNTVYLQMNRLKPEDTAVYYCAARGYYTEAASSKRGNYWGQGTQVTVSS = high polyreactivity
QVQLVESGGGLVQAGGSLRLSCSASGSIFPYYAMGWSRQAPGKERELVAAISRSGGSTYYADSVKGRFTISRDNAKNTVYLQMNSLKPEDTAGYYCAAVGGVRPQQHYYYRYDYWGQGTQVTVSS = high polyreactivity

What the record says about QVQLVESGGGLVQAGGSLRLSCAASGFIFGNYPMGWYRQAPGKQRELVAAITSGGNTNYADSVKGRFTISRDNAKNTVYLQMNSLKPEDTAVYYCAADRNLYWVFSPNETEDYWGQGTQVTVSS : polyreactivity (PSR sort gate) is low polyreactivity

What the record says about QVQLVESGGGLVQAGGSLRLSCAASGRTFHTYAIGWYRQAPGKERELVAAITRRGGSTYYADSVKGRFTISRDNAKNTVYLQMNSLKPEDTAVYYSAAPWYGYWGQGTQVTVSS : polyreactivity (PSR sort gate) is high polyreactivity

What the record says about QVQLVESGGGLVQAGGSLRLSCAASGGTFWYYAMGWYRQAPGKERELVASISRGGSTNYADSVKGRFTISRDNAKNTVYLLMNSLKPEDTAVYYCNAGLRVGPRRYVDYEYDYWGQGTQVTVSS : polyreactivity (PSR sort gate) is low polyreactivity

What the record says about QVQLVESGGGLVQAGGSLRLSCAASGFIFAWNDMGWYRQAPGKERELVAAISSGTSTNYADSVKGRFTISRDNAKNTVYLQMNSLKPEDTGVYYCNVDSPLQPYRYYYWGQGSQVTVSS : polyreactivity (PSR sort gate) is low polyreactivity

What the record says about QVQLVESGGGLVQAGGSLRLSCAASGRTFEVYAMGWYRQAPGKERELVAAISGGDDSTYYADSVQGRFTISRDNAKNTVYLQRNSLKPEDTAVYYCNAHYPTSATLPKTVVEYDYWGQGTQVTVSS : polyreactivity (PSR sort gate) is low polyreactivity

What the record says about QVQLVESGGGLVQAGGSLRLSCADSGSISDYYAMGWYRQAPGKERELVAAISWDGGSTYYADSVKGRFTISRDNAKNTVYLQMNSLKPEDTAVYYCAAVAWEGSGSEMYSWGQGTQVTVSS : polyreactivity (PSR sort gate) is low polyreactivity
